molecular target: sphingosine kinase 2 (SK2) (Homo sapiens); experiment: In vitro inhibition of purified recombinant sphingosine kinase 2; details: purified recombinant enzyme
Sequence (Q9NRA0 whole entry, species assumed): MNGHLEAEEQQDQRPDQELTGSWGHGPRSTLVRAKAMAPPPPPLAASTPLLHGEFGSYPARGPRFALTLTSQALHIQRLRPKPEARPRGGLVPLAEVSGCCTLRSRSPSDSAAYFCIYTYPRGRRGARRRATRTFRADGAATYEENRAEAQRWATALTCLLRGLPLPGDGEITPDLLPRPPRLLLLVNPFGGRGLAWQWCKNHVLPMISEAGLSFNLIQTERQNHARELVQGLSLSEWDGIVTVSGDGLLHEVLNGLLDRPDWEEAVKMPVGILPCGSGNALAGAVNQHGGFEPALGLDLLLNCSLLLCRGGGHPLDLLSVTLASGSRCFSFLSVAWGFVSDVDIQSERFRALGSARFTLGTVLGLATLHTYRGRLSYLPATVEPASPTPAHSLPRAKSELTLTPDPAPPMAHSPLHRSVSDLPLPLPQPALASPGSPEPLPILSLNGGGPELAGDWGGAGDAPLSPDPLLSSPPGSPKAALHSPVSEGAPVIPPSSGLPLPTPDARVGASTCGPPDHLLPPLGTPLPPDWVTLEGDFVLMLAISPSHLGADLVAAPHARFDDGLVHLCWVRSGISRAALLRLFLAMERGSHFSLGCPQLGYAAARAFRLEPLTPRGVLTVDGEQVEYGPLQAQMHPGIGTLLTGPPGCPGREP
Structures can show the parent of a compound that is named as a salt.
Experimental endpoint: IC50 (nM)

A: CCCCCCCCCCCCC/C=C/[C@@H](O)[C@H](CO)NC(=N)N [LCL146, hydrochloride]
B: CCCCCCCCCCCCC/C=C/[C@H](O)[C@@H](CO)NC(=N)N [LCL351, hydrochloride]
Query: Of A and B , which carries the smaller reported IC50 figure? Write the label of whichever entry you select.
Response: B
(B: 300 nM, A: 740 nM)

---

target: sphingosine kinase 1 (SK1) (Homo sapiens); assay: In vitro inhibition of purified recombinant sphingosine kinase 1; type: biochemical; details: purified recombinant enzyme; read-out: IC50 on SK1
Sequence (Q9NYA1 whole entry, species assumed): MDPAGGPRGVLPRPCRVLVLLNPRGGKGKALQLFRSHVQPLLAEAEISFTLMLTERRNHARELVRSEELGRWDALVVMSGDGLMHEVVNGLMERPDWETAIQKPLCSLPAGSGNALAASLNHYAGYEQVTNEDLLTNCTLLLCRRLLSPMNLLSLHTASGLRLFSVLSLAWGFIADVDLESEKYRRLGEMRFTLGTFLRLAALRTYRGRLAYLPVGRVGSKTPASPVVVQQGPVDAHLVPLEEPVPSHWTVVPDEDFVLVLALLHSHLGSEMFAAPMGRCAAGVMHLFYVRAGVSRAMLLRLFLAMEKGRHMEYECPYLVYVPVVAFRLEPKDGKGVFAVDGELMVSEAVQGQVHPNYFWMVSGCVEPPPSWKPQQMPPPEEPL
Counter-ions that a name gives are not always drawn.
Experimental endpoint: pIC50
The meaning of pIC50 here: minus log10 of the concentration in molar units.

Query: What reported pIC50 corresponds to CCCCCCCCCCCCC/C=C/[C@H](O)[C@@H](CO)NC(=N)N [LCL351, hydrochloride] on sphingosine kinase 1 (SK1) (Homo sapiens)?
Response: 7.40
